Reference source: PubChem BioAssay (NCATS)

Test: qHTS of pediatric cancer cell lines to identify multiple opportunities for drug repurposing: Primary screen for A673 cells (AID 1347092); note: nearly all actives have a fitted effect of over 45% in size
Details: A673 Ewing sarcoma viability, CellTiter-Glo ATP luminescence, 48 h; series mostly up to 46 µM
Records with an inconclusive call do not appear. Activity calls are given as the source filed them. Calls come from the whole dose curve; as a rule, active = well fitted cell-killing curve with a large enough effect; inconclusive = small, poorly fitted or top-dose-only effect; inactive = no such curve, though single readings can be large or run the other way.
Possible outcomes: 1.0 for active, 0.0 for inactive

compound=Cc1ccc(-c2cc(C(F)(F)F)nn2-c2ccc(S(N)(=O)=O)cc2)cc1 label_class=0.0
compound=Cc1ccc(C(=O)Nc2ccc(S(=O)(=O)O)c3cc(S(=O)(=O)O)cc(S(=O)(=O)O)c23)cc1NC(=O)c1cccc(NC(=O)Nc2cccc(C(=O)Nc3cc(C(=O)Nc4ccc(S(=O)(=O)O)c5cc(S(=O)(=O)O)cc(S(=O)(=O)O)c45)ccc3C)c2)c1 label_class=0.0
compound=NS(=O)(=O)c1cc2c(cc1Cl)NCNS2(=O)=O label_class=0.0
compound=Nc1c2c(nc3ccccc13)CCCC2 label_class=0.0
compound="CC(C)NCC(O)COc1ccc(CCOCC2CC2)cc1 (stereo unspecified)" label_class=0.0
compound=O=C(c1ccc(F)cc1)C1CCN(CCn2c(=O)[nH]c3ccccc3c2=O)CC1 label_class=0.0
compound=OCCN1CCN(CCCN2c3ccccc3Sc3ccc(C(F)(F)F)cc32)CC1 label_class=1.0
compound="COc1cc2nc(N3CCN(C(=O)C4COc5ccccc5O4)CC3)nc(N)c2cc1OC (stereo unspecified)" label_class=1.0
compound="COc1ccc(CCN(C)CCCC(C#N)(c2ccc(OC)c(OC)c2)C(C)C)cc1OC (stereo unspecified)" label_class=0.0
compound=Nc1nnc(-c2cccc(Cl)c2Cl)c(N)n1 label_class=0.0
compound=CN1C(C(=O)Nc2ccccn2)=C(O)c2ccccc2S1(=O)=O label_class=0.0
compound="COc1ccccc1OCCNCC(O)COc1cccc2[nH]c3ccccc3c12 (stereo unspecified)" label_class=0.0
compound=O=C(CCCN1CCC(O)(c2ccc(Cl)cc2)CC1)c1ccc(F)cc1 label_class=0.0
compound="CCc1cccc2c3c([nH]c12)C(CC)(CC(=O)O)OCC3 (stereo unspecified)" label_class=0.0
compound=O=c1c(O)c(-c2ccc(O)c(O)c2)oc2cc(O)cc(O)c12 label_class=1.0
compound="COc1ccccc1N1CCN(CC(O)COc2cccc3ccccc23)CC1 (stereo unspecified)" label_class=0.0
compound=Cn1c(=O)c2c(ncn2C)n(C)c1=O label_class=0.0
compound=CN(C)C(=O)C(CCN1CCC(O)(c2ccc(Cl)cc2)CC1)(c1ccccc1)c1ccccc1 label_class=1.0
compound=Nc1ccn([C@H]2CC[C@@H](CO)O2)c(=O)n1 label_class=0.0
compound=CS(=O)(=O)Nc1ccc([N+](=O)[O-])cc1Oc1ccccc1 label_class=0.0
compound=CC(C)(C)C(=O)Oc1ccc(S(=O)(=O)Nc2ccccc2C(=O)NCC(=O)O)cc1 label_class=0.0
compound=CN(CCOc1ccc(NS(C)(=O)=O)cc1)CCc1ccc(NS(C)(=O)=O)cc1 label_class=0.0
compound=CN(C)CCOC(c1ccccc1)c1ccccc1 label_class=0.0
compound=COc1ccc2[nH]cc(CCNC(C)=O)c2c1 label_class=0.0
compound=CN1CCC(=C2c3ccccc3C=Cc3ccccc32)CC1 label_class=1.0
compound="CN1C2CCC1CC(OC(=O)C(CO)c1ccccc1)C2 (stereo unspecified)" label_class=0.0
compound="CC(C)Cc1ccc(C(C)C(=O)O)cc1 (stereo unspecified)" label_class=0.0
compound=Clc1ccc2nsnc2c1NC1=NCCN1 label_class=0.0
compound=O=C(Nc1ccc([N+](=O)[O-])cc1Cl)c1cc(Cl)ccc1O label_class=1.0
compound=CC(C)C(=O)Nc1ccc([N+](=O)[O-])c(C(F)(F)F)c1 label_class=1.0
compound=N[C@@H](Cc1c[nH]c2ccc(O)cc12)C(=O)O label_class=0.0
compound=CCOC(=O)c1ncn2c1CN(C)C(=O)c1cc(F)ccc1-2 label_class=0.0
compound="CCN1CCCC1CNC(=O)c1cc(S(=O)(=O)CC)c(N)cc1OC (stereo unspecified)" label_class=0.0
compound="NC(CO)C(=O)NNCc1ccc(O)c(O)c1O (stereo unspecified)" label_class=1.0
compound=CN(C)CCCN1c2ccccc2CCc2ccc(Cl)cc21 label_class=1.0
compound=NC(=O)OCC(COC(N)=O)c1ccccc1 label_class=0.0
compound=NCCS(=O)(=O)O label_class=0.0
compound=COc1nc(C)nc(Cl)c1NC1=NCCN1 label_class=0.0
compound=Cc1cn([C@H]2C=C[C@@H](CO)O2)c(=O)[nH]c1=O label_class=0.0
compound=C[C@@H]1CC(=O)NN=C1c1ccc(NN=C(C#N)C#N)cc1 label_class=1.0
compound=COc1cc2nc(N3CCN(C(=O)c4ccco4)CC3)nc(N)c2cc1OC label_class=1.0
compound=Cc1cc(C(C)(C)C)cc(C)c1CC1=NCCN1 label_class=0.0
compound=CN1CCN(C2=Nc3cc(Cl)ccc3Nc3ccccc32)CC1 label_class=0.0
compound="COc1ccc(C2CNC(=O)C2)cc1OC1CCCC1 (stereo unspecified)" label_class=0.0
compound="O=C(C1CCCCC1)N1CC(=O)N2CCc3ccccc3C2C1 (stereo unspecified)" label_class=0.0
compound=COc1cc2c(c(OC)c1OC)-c1ccc(OC)c(=O)cc1[C@@H](NC(C)=O)CC2 label_class=1.0
